ASSAYED SYSTEM: AR in LNCaP cytosol (Homo sapiens (Human), UniProt P10275, T878A)
Sequence (P10275 whole entry T878A): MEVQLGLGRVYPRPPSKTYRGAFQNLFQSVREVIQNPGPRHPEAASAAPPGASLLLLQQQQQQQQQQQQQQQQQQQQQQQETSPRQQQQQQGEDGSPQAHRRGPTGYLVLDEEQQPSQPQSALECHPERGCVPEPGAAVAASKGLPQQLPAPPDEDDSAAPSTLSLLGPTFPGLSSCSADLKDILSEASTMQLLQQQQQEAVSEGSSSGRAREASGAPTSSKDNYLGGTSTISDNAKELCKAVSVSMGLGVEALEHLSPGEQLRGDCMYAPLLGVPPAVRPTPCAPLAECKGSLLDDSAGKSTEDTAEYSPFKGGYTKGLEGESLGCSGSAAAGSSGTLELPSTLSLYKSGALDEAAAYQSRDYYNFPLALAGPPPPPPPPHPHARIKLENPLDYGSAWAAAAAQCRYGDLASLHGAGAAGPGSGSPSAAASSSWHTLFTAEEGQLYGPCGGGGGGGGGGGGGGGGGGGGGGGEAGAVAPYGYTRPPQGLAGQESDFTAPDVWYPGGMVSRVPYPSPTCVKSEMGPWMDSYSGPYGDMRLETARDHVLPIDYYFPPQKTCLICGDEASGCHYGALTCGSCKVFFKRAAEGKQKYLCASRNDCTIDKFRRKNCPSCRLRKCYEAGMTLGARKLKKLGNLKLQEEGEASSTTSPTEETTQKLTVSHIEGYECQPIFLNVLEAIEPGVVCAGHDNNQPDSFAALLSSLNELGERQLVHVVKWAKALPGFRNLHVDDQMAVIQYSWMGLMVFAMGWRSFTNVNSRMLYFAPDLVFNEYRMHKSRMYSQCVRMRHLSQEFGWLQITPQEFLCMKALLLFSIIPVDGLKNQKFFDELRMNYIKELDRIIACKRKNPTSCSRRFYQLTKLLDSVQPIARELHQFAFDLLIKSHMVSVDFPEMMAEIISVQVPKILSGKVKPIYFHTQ
TEST: AR binding assay (3H-methyltrienolone displacement)
PARTICULARS: read-out: AR IC50, 4° C. for 24 hours
ASSAY ENDPOINT: log10 of IC50 (log10 of the value in nM)
Form field - Quantity: IC50; Unit: nM; Scale: log10

Prompt: Please report the recorded log10 of IC50 for C[C@](O)(CS(=O)(=O)C1CCN(C(=O)c2cc(Cc3n[nH]c(=O)c4ccccc34)ccc2F)CC1)C(=O)Nc1ccc(C#N)c(C(F)(F)F)c1 .
Completion: 3.01

Prompt: And then C[C@](O)(COC1CCN(C(=O)c2cc(Cc3n[nH]c(=O)c4ccccc34)ccc2F)CC1)C(=O)Nc1ccc(C#N)c(C(F)(F)F)c1 , what is it?
Completion: 3.82

Prompt: And then CC1(C)C(=O)N(c2ccc(C#N)c(C(F)(F)F)c2)C(=S)N1CCNC(=O)c1cc(Cc2n[nH]c(=O)c3ccccc23)ccc1F , what is it?
Completion: 1.97

Prompt: And then CC1(C)C(=O)N(c2ccc([N+](=O)[O-])c(C(F)(F)F)c2)C(=O)N1CCNC(=O)c1cc(Cc2n[nH]c(=O)c3ccccc23)ccc1F , what is it?
Completion: 3.66

Prompt: And then CC1(C)C(=O)N(c2ccc(C#N)c(C(F)(F)F)c2)C(=O)N1CCNC(=O)c1cc(Cc2n[nH]c(=O)c3ccccc23)ccc1F , what is it?
Completion: 2.70

These measurements were taken from patent US11826430B2.
